biological target: bovine aortic sarcolemma membrane vesicles ([^125 I]ChTX binding) (Bos taurus, UniProt Q28204)
Sequence (Q28204 whole entry): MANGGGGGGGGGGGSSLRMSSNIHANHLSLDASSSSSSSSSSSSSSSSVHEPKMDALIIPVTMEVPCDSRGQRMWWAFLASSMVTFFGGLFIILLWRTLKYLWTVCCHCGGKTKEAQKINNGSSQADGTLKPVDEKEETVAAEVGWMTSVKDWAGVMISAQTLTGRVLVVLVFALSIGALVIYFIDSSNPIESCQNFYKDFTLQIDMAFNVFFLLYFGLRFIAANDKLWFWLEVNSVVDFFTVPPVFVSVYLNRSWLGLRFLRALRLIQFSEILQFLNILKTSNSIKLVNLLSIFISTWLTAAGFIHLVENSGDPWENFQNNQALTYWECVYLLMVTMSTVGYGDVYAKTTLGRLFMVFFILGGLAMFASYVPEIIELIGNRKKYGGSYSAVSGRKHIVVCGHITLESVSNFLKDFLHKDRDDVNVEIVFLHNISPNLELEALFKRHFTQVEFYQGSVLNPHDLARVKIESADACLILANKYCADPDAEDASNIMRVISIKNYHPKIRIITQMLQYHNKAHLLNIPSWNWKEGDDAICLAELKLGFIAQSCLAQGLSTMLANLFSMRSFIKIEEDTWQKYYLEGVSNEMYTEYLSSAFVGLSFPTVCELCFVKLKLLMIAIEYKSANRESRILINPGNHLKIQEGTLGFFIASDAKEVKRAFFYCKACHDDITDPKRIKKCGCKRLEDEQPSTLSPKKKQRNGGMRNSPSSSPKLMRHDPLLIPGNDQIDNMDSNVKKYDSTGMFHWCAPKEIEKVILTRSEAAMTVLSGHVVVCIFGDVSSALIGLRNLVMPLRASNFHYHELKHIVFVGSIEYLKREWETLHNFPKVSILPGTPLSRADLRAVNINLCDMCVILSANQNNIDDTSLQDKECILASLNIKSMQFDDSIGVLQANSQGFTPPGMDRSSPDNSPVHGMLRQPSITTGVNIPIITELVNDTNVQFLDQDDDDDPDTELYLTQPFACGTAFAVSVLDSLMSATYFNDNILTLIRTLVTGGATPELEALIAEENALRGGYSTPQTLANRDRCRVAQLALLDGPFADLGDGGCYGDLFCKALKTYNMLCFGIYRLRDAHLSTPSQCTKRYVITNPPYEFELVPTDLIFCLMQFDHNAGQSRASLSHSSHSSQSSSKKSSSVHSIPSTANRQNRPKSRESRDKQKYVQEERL
pIC50: −log10 of the molar value.
Parameter measured: pIC50

molecule="CC1=CC[C@@]2(C)C[C@H](O)[C@@](O)(C(C)C)[C@@H]2CC1 [Compound B, reference compound]" recorded_result=6.70
